System: Serratia marcescens
ASSAY OVERVIEW: Antimicrobial activity against Serratia marcescens ATCC 13880 harboring plasmid STV29 by broth dilution method
Assay type: functional
Friendly reminder: MIC below 2 µg/mL is True, at or above is False.

# input Say whether its MIC is strictly beneath 2 µg/mL. Entry: `CCn1cc(C(=O)O)c(=O)c2cnc(N3CCNCC3)nc21`
# output False

# input Say whether its MIC is strictly beneath 2 µg/mL. Entry: `NC[C@H]1O[C@H](O[C@H]2[C@H](O)[C@@H](O[C@H]3O[C@H](CO)[C@@H](O)[C@H](N)[C@H]3O)[C@H](N)C[C@@H]2N)[C@H](O)[C@@H](O)[C@@H]1O`
# output True

# input Say whether its MIC is strictly beneath 2 µg/mL. Entry: `CCn1cc(C(=O)O)c(=O)c2cc(F)c(N3CCNCC3)cc21`
# output True

# input Say whether its MIC is strictly beneath 2 µg/mL. Entry: `O=C(N[C@H](CO)[C@H](O)c1ccc([N+](=O)[O-])cc1)C(Cl)Cl`
# output False

# input Say whether its MIC is strictly beneath 2 µg/mL. Entry: CCn1cc(C(=O)O)c(=O)c2cc(F)c(N3CCNC(C)C3)c(F)c21 (configuration not stated)
# output True

# input Say whether its MIC is strictly beneath 2 µg/mL. Entry: `CN(C)[C@@H]1C(O)=C(C(N)=O)C(=O)[C@@]2(O)C(O)=C3C(=O)c4c(O)cccc4[C@@](C)(O)[C@H]3C[C@@H]12`
# output False

# input Say whether its MIC is strictly beneath 2 µg/mL. Entry: CC1(C)S[C@@H]2[C@H](NC(=O)C(C(=O)O)c3ccccc3)C(=O)N2[C@H]1C(=O)O (some centres not stated)
# output False

The measurements presented in this section are drawn from ChEMBL document CHEMBL1649274.
